- Tested System: MAP3K10 (human)
- Method Description: radiometric filter-binding kinase assay, Kinase HotSpot
- Cond: compound 0.5 µM; ATP 10 µM
Assay Metric: residual activity (%)
The response must be a number in % with no trailing unit.

Ask: Hi! What's the reported residual activity for CCCCc1c(-c2ccc(O)cc2)[nH]c2nccnc12 on MAP3K10 (human)?
Result: 74.3

Ask: Lab note: need residual activity for Cn1cc(/C=C2\C(=O)Nc3ccc(S(N)(=O)=O)cc32)c2ccccc21 on MAP3K10 (human), anyone have it?
Result: 95.9

Ask: Return residual activity measured with MAP3K10 (human) given this compound: CCc1nc(-c2ccc(OC)cc2)[nH]c1-c1ccncc1
Result: 102

Ask: Could you share what residual activity was measured for COc1cc2c(cc1OC)-c1[nH]nc(Nc3cccc(F)c3)c1C2 , tested on MAP3K10 (human)?
Result: 87.1
